Where do these numbers come from? They come from patent US9980943B2.

Recorded CMV-LACZ in Myotubes, value relative to DMSO for the following compounds
# Test system: β-galactosidase in CMV-LacZ C2C12 myotubes
# METHOD DESCRIPTION: CMV-LacZ secondary screen in C2C12 myotubes (β-Gal stabilizing assay)
# Assay type: cell-based, mouse
# TEST CONDITIONS: 0.5 uM; SU9516 analogs, C2C12 CMV-LacZ, N=2
Number only, please.

Look over these answered cases.
COc1ccc2c(c1)C(=C(C#N)C#N)C(=O)N2CCc1ccccc1 [MLS000763074-01] : 1.0089
Cc1ncc(/C=C2\C(=O)Nc3ccccc32)[nH]1 [MLS000834757-01] : 1.0238
Cc1cc(C)c(/C=C2\C(=O)Nc3ccccc32)[nH]1 [NCGC00094381-05] : 1.0045
O=C1Nc2ccccc2/C1=C/c1ccnc2ccccc12 [MLS001182278-01] : 0.9674
COc1ccc(C(=O)/C=C2/C(=O)Nc3ccccc32)cc1 [MLS001163848-01] : 1.2133
N#C/C(=C1/C(=O)Nc2ccc(Br)cc21)c1ccccn1 [MLS001013431-01] : 0.8638
Cc1ccc2c(c1)/C(=C/c1ccccc1)C(=O)N2 [MLS001202354-01] : 1.0676
O=C1Nc2ccccc2/C1=C/c1ccccc1Cl [MLS001202425-01] : 0.8793
O=C1C(c2c(O)[nH]c3ccccc23)=Nc2ccccc21 [NCGC00179302-02] : 0.9618
O=C(O)COc1ccccc1/C=C1\C(=O)Nc2ccc(Br)cc21 [MLS001196427-01] : 0.9363

IN: Request body: readout CMV-LACZ in Myotubes, value relative to DMSO, system β-galactosidase in CMV-LacZ C2C12 myotubes, query Cc1ccc2c(c1)/C(=C/c1ccccc1C)C(=O)N2 [MLS001202402-01] . Return the value.
OUT: 0.9200

IN: Queued: C=CCOc1ccc(C(=O)/C=C2/C(=O)Nc3ccccc32)cc1 [MLS001214264-01]
OUT: 1.1210

IN: Queued: CCOc1cc2c3c(c1)C(C)=CC(C)(C)N3C(=O)C2=O [MLS000710233-01]
OUT: 0.8781

* * *

# Test system: α7 integrin (LacZ reporter in α7βgal+/− myoblasts)
# METHOD DESCRIPTION: Myoblast α7+/LacZ integrin FDG assay (Burkin assay in myoblasts, 96-well)
# Type: cell-based, mouse
# TEST CONDITIONS: 10 uM; α7+/LacZ myoblasts, 96-well
Recorded Burkin Assay in Myoblasts, signal relative to DMSO for the following compounds

N#C/C(=C/c1ccc(N2CCOCC2)o1)C(=O)Nc1ccccc1 : 1.051
Cc1cc(OCC(=O)NC(C)C)ccc1Cl : 0.6258
O=C(O)c1cc(N=Cc2c(O)c3ccccc3oc2=O)ccc1O : 0.8798
OC(c1nc2ccc(F)cc2[nH]1)C(O)c1nc2ccc(F)cc2[nH]1 (stereo not drawn) : 0.8945
O=C(Nc1ccccc1F)c1ccc([N+](=O)[O-])s1 : 0.7632
O=C(Nc1ccccc1Cl)C1CCCN1C(=O)OCc1ccccc1 (stereo not drawn) : 1.161
Cc1noc(C)c1COc1ccc(C(=O)NCCc2ccccn2)cc1 : 1.169
CCN(CC(=O)NCc1cccs1)C(=O)COc1ccc(C(N)=O)cc1 : 1.251

IN: Request body: readout Burkin Assay in Myoblasts, signal relative to DMSO, system α7 integrin (LacZ reporter in α7βgal+/− myoblasts), query CCOc1cc(C)c(S(=O)(=O)N2CCCCC2)cc1C . Return the value.
OUT: 0.9728

IN: Queued: CN1C(=O)N(CC(=O)N2CCN(S(=O)(=O)c3ccc(Cl)s3)CC2)C(=O)C12CCCCC2
OUT: 1.261

IN: Queued: CCOC(=O)c1nnn(-c2nonc2OC)c1-c1ccccc1
OUT: 0.917

IN: Queued: CCC(CC)C(=O)Nc1c(C(=O)N2CCN(c3ccccc3)CC2)oc2ccccc12
OUT: 0.9749
